Tested on: OVCAR-3
assay method text: NCI tumour cell line growth inhibition, 48 h
The source made the active and inactive calls. Cut-off read from the data, not from the text of the source: active = GI50 up to about 1.1 µM and inactive = higher.
Valid outcomes are listed here; reply with one: true (active), false (inactive)

Some solved cases for reference:
# molecule, subject of test, group
data = [
    ("COc1cc(OC)c2c(c1OC)OCC(Cc1ccc(O)cc1)C2=O (stereo not given)", "OVCAR-3", "false"),
    ("O=C(C(=O)c1ccc(Cc2ccc(C(=O)C(=O)c3ccccc3)cc2)cc1)c1ccccc1", "OVCAR-3", "false"),
    ("CC(=O)SCCC(NC(=S)Nc1ccccc1)P(=O)(Oc1ccccc1)Oc1ccccc1 (stereo not given)", "OVCAR-3", "false"),
]

Req: Test call, this molecule: `CCOC1=NC(C(F)(F)F)(C(F)(F)F)N=C(N2CCCCC2)O1`
Resp: false

Req: State the result this test recorded for COc1ccc(S(=O)(=O)NC(CCC(=O)NC(N)=O)C(=O)NC(N)=O)cc1 (stereo not given) .
Resp: false

Req: Test call for this molecule, please: N#CCc1ccc(C(C#N)/C(CCCC(=O)Nc2cccc([N+](=O)[O-])c2)=N/NC(N)=S)cc1 (stereo not given)
Resp: false

Req: Lab log entry: `C[C@H](NC(=O)n1c2ccccc2c2ccccc21)C(=O)O` — outcome as called in the assay?
Resp: false

Req: // param item: CCCCN(CCCC)CC(C(C)=O)C(c1ccccc1)c1c(O)c2ccccc2oc1=O (stereo not given) ; yields the recorded call
Resp: false

Req: Short answer needed: outcome of this test for COCC(/N=C\N1CCCc2ccccc2[C@@H]1CCCCl)C(C)(C)C (stereo not given in full) ?
Resp: true

Req: What outcome does the record of this test show for COC(=O)C12OCC34C(CC5C(C)=CC(=O)C(O)C5(C)C3C(O)C1O)OC(=O)C(OC(=O)CC(C)C)C24 (stereo not given) ?
Resp: true

----------
Kindly supply the reported GI50 values for the records listed here.
Tested on: KM12
assay method text: NCI tumour cell line growth inhibition, 48 h
The source made the active and inactive calls. No stated cut-off is given here; in the data, active = GI50 up to about 1.1 µM and inactive = higher.

# count of solved cases: 8
# compound, GI50
data = [
    ("CC(=O)O[C@H]1CC[C@@]2(C)C(CC[C@]3(C)C2CC[C@]2(C)Oc4c(C)cc(O)cc4C[C@@H]23)C1(C)C (some centres undefined)", "6.71 µM (inactive)"),
    ("NC(=O)C(=CN1C(=O)CC(=O)NC1=S)C(N)=O", "> 100 µM (inactive)"),
    ("O=C(c1ccc(Cl)c(Cl)c1)N(C(=O)N1CCN(c2ccccc2)CC1)S(=O)(=O)c1ccccc1", "> 100 µM (inactive)"),
    ("CC(=O)SCCC(NC(=S)Nc1ccccc1)P(=O)(Oc1ccccc1)Oc1ccccc1 (centres undefined)", "> 100 µM (inactive)"),
    ("CCOC(=O)CN1C(=O)c2ccc(NC(=O)C(=O)O)cc2S1(=O)=O", "> 100 µM (inactive)"),
    ("COC(NC(=O)Nc1ccc(C)cc1)(C(F)(F)F)C(F)(F)F", "34.7 µM (inactive)"),
    ("CC(C)CC(NC(O)[BH2-][N+](C)(C)C)C(=O)NC(Cc1ccccc1)C(=O)N[C@H]1c2ccsc2/C(=N/O)[C@H]1O (some centres undefined)", "> 100 µM (inactive)"),
    ("N=C1C(O)C2(I)c3ccccc3N3C(=N)C(O)C4c5ccccc5N1C4C32 (centres undefined)", "15.1 µM (inactive)"),
]

// switching to the query compound
Req: Report GI50 for O=C(O)COc1ccc2c3c1C(=O)CCC3CO2 (centres undefined) tested on KM12.
Resp: > 100 µM (inactive)

Values were extracted from ChEMBL document CHEMBL1201862.
